From: ChEMBL document CHEMBL4007467

- SYSTEM NAME: CYP2A6 (Homo sapiens)
- Sequence (P11509 whole entry): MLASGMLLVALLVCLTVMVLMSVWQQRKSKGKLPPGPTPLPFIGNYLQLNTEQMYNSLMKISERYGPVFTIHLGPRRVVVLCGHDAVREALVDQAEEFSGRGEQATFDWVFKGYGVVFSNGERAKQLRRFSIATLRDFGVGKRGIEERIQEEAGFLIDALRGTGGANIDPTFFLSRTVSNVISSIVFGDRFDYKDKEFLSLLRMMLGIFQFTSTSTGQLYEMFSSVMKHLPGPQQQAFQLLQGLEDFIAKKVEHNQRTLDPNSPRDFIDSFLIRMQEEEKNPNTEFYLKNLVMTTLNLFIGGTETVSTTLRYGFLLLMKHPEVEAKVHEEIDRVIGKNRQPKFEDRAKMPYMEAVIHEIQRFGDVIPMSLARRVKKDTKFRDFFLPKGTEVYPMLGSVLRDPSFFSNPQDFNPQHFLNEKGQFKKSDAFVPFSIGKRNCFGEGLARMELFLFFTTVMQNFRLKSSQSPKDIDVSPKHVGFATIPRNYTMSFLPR
- ASSAY NOTES: Inhibition of CYP2A6 in human liver microsomes assessed as enzyme-mediated metabolite formation at 1 uM using coumarin as substrate preincubated for 20 mins followed by substrate addition measured after 30 mins in presence of NADPH by LC-MS/MS analysis relative to control
- Assay type: ADME
- Design: scale not given: the % may be the effect or the level left
- CONDITION LABEL: probe coumarin, read-out: Activity
RESULT TYPE: activity at 0.5 h, 1 µM (%)

>>> df
                   line_notation  measured_result
0  CCCCCCCC(=O)CCc1ccc(O)c(OC)c1              102

----------
- SYSTEM NAME: UniProt:P33261
- ASSAY NOTES: Inhibition of recombinant human CYP2C19 expressed in baculosomes using Vivid EOMCC substrate blue measured every 30 sec for 30 mins by fluorescence assay
- Type: ADME
RESULT TYPE: IC50 (µM)

                              line_notation  result_type  measured_result
0    CCCCCCC[C@H](O)CC(=O)CCc1ccc(O)c(OC)c1         IC50             12.5
1      CCCCC[C@H](O)CC(=O)CCc1ccc(O)c(OC)c1         IC50             30.7
2  CCCCCCCCC[C@H](O)CC(=O)CCc1ccc(O)c(OC)c1         IC50             13.6

----------
- SYSTEM NAME: UniProtKB P08684
- ASSAY NOTES: Inhibition of CYP3A4 in human liver microsomes assessed as enzyme-mediated metabolite formation at 3 uM using midazolam as substrate preincubated for 20 mins followed by substrate addition measured after 30 mins in presence of NADPH by LC-MS/MS analysis relative to control
- Type: ADME
- Design: scale not given: the % may be the effect or the level left
- CONDITION LABEL: probe midazolam, read-out: Activity
RESULT TYPE: activity at 0.5 h, 3 µM (%)

>>> print(df.to_string())
                   line_notation  unit_of_measure  measured_result
0  CCCCCCCC(=O)CCc1ccc(O)c(OC)c1                %              103

----------
- SYSTEM NAME: CYP2C9 (Homo sapiens, UniProt P11712)
- Sequence (P11712 whole entry): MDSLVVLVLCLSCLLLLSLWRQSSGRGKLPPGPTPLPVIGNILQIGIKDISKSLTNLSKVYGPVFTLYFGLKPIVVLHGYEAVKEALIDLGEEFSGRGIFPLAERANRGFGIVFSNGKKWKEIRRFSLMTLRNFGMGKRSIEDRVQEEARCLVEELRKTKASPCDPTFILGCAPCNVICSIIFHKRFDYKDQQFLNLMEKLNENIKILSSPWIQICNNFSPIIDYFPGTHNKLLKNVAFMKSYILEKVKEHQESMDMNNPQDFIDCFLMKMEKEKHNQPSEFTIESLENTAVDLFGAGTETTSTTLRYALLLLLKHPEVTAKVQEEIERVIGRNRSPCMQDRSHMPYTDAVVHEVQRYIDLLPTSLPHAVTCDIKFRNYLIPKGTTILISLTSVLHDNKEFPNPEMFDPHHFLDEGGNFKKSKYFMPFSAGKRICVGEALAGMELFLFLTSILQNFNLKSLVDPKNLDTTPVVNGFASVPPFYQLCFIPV
- ASSAY NOTES: Inhibition of CYP2C9 in human liver microsomes assessed as enzyme-mediated metabolite formation at 0.1 uM using diclofenac as substrate incubated for 5 mins followed by NADPH addition measured after 30 mins by LC-MS/MS analysis relative to control
- Type: ADME
- Set-up: scale not given: the % may be the effect or the level left
- CONDITION LABEL: probe diclofenac, read-out: Activity
RESULT TYPE: activity at 0.5 h, 0.1 µM (%)

                   line_notation                result_type  measured_result
0  CCCCCCCC(=O)CCc1ccc(O)c(OC)c1  activity at 0.5 h, 0.1 µM              120

----------
- SYSTEM NAME: UniProt P20813
- ASSAY NOTES: Inhibition of CYP2B6 in human liver microsomes assessed as enzyme-mediated metabolite formation at 30 uM using bupropion as substrate incubated for 5 mins followed by NADPH addition measured after 30 mins by LC-MS/MS analysis relative to control
- Type: ADME
- Parameters: scale not given: the % may be the effect or the level left
- CONDITION LABEL: probe bupropion, read-out: Activity
RESULT TYPE: activity at 0.5 h, 30 µM (%)

>>> df
                   line_notation     system_name  unit_of_measure  measured_result
0  CCCCCCCC(=O)CCc1ccc(O)c(OC)c1  UniProt P20813                %               37

----------
- SYSTEM NAME: CYP2C19 (Homo sapiens, UniProt P33261)
- Sequence (P33261 whole entry): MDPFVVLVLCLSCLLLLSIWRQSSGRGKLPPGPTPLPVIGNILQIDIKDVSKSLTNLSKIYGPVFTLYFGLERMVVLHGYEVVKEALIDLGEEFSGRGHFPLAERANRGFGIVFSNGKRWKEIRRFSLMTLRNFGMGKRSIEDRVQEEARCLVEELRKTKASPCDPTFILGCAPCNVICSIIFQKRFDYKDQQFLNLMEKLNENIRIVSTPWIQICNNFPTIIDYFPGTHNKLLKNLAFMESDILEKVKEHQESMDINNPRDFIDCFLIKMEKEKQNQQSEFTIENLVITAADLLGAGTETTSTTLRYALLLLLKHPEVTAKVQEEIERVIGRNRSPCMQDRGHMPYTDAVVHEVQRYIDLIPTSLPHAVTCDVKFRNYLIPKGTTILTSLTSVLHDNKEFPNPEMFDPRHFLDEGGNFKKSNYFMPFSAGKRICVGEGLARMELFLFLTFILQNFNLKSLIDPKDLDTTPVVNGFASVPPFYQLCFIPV
- ASSAY NOTES: Inhibition of CYP2C19 in human liver microsomes assessed as enzyme-mediated metabolite formation at 0.3 uM using (S)-mephenytoin as substrate incubated for 5 mins followed by NADPH addition measured after 30 mins by LC-MS/MS analysis relative to control
- Assay type: ADME
- Set-up: scale not given: the % may be the effect or the level left
- CONDITION LABEL: probe (S)-mephenytoin, read-out: Activity
RESULT TYPE: activity at 0.5 h, 0.3 µM (%)

                   line_notation                result_type  measured_result
0  CCCCCCCC(=O)CCc1ccc(O)c(OC)c1  activity at 0.5 h, 0.3 µM             85.8

----------
The entries below are paired with their reported IC50.
- SYSTEM NAME: Cytochrome P450 2B6 (Homo sapiens, UniProt P20813)
- Sequence (P20813 whole entry): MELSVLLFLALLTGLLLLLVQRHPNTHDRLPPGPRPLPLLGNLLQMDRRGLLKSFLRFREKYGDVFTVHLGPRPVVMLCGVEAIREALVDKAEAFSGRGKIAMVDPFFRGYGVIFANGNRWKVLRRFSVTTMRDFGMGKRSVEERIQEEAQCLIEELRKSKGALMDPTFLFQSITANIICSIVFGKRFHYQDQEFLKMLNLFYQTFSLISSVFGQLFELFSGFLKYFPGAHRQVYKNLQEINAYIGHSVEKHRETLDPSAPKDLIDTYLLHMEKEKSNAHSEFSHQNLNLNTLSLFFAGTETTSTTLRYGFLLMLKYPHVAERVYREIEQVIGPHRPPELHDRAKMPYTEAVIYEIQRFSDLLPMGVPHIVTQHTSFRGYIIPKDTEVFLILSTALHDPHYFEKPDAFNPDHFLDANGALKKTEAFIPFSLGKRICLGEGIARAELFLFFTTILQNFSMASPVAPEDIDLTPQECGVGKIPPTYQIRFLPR
- ASSAY NOTES: Inhibition of CYP2B6 in human liver microsomes using bupropion as substrate preincubated for 10 mins followed by NADPH addition measured after 20 mins
- Format: ADME
RESULT TYPE: IC50 (µM)

>>> print(df.to_string())
                              line_notation  measured_result
0          CCCCC/C=C/C(=O)CCc1ccc(O)c(OC)c1              5.8
1  CCCCCCCCC[C@H](O)CC(=O)CCc1ccc(O)c(OC)c1              4.3
2      CCCCC[C@H](O)CC(=O)CCc1ccc(O)c(OC)c1             40.8
3    CCCCCCC[C@H](O)CC(=O)CCc1ccc(O)c(OC)c1              8.1

----------
- SYSTEM NAME: CYP3A4 (Homo sapiens)
- ASSAY NOTES: Inhibition of CYP3A4 in human liver microsomes assessed as enzyme-mediated metabolite formation at 10 uM using midazolam as substrate preincubated for 20 mins followed by substrate addition measured after 30 mins in presence of NADPH by LC-MS/MS analysis relative to control
- Format: ADME
- Parameters: scale not given: the % may be the effect or the level left
- CONDITION LABEL: probe midazolam, read-out: Activity
RESULT TYPE: activity at 0.5 h, 10 µM

>>> print(df.to_string())
                   line_notation  measured_result
0  CCCCCCCC(=O)CCc1ccc(O)c(OC)c1             110%

----------
- SYSTEM NAME: CYP3A4 (Homo sapiens, UniProt P08684)
- ASSAY NOTES: Inhibition of CYP3A4 in human liver microsomes assessed as enzyme-mediated metabolite formation at 0.1 uM using midazolam as substrate incubated for 5 mins followed by NADPH addition measured after 30 mins by LC-MS/MS analysis relative to control
- Format: ADME
- Set-up: scale not given: the % may be the effect or the level left
- CONDITION LABEL: probe midazolam, read-out: Activity
RESULT TYPE: activity at 0.5 h, 0.1 µM (%)

>>> print(df.to_string())
                   line_notation  unit_of_measure  measured_result
0  CCCCCCCC(=O)CCc1ccc(O)c(OC)c1                %              109

----------
- SYSTEM NAME: CYP3A4 (Homo sapiens)
- ASSAY NOTES: Inhibition of CYP3A4 in human liver microsomes assessed as enzyme-mediated metabolite formation at 10 uM using testosterone as substrate incubated for 5 mins followed by NADPH addition measured after 30 mins by LC-MS/MS analysis relative to control
- Type: ADME
- Set-up: scale not given: the % may be the effect or the level left
- CONDITION LABEL: probe testosterone, read-out: Activity
RESULT TYPE: activity at 0.5 h, 10 µM (%)

>>> df
                   line_notation               result_type  measured_result
0  CCCCCCCC(=O)CCc1ccc(O)c(OC)c1  activity at 0.5 h, 10 µM             58.6

----------
- SYSTEM NAME: Cytochrome P450 3A4 (Homo sapiens, UniProt P08684)
- Sequence (P08684 whole entry): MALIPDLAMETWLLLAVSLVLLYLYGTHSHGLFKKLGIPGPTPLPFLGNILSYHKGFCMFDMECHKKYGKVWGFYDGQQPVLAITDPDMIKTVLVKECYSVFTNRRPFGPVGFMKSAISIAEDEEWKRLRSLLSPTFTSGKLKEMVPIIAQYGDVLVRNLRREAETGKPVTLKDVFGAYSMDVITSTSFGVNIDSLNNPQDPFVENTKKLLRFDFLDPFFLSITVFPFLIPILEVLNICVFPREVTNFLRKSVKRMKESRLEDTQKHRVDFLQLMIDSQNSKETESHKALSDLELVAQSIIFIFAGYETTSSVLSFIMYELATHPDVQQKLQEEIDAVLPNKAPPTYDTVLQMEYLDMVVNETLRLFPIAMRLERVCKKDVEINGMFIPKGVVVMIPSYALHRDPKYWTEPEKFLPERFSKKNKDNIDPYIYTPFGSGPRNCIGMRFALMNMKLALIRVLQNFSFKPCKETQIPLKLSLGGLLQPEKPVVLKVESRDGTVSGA
- ASSAY NOTES: Inhibition of CYP3A4 in human liver microsomes assessed as enzyme-mediated metabolite formation using midazolam as substrate incubated for 5 mins followed by NADPH addition measured after 30 mins by LC-MS/MS analysis
- Type: ADME
pIC50: −log10 of the molar value.
RESULT TYPE: pIC50

                   line_notation  measured_result
0  CCCCCCCC(=O)CCc1ccc(O)c(OC)c1           < 4.52

----------
- SYSTEM NAME: UniProt P11712
- ASSAY NOTES: Inhibition of recombinant human CYP2C9 expressed in baculosomes using Vivid OOMR substrate red measured every 30 sec for 30 mins by fluorescence assay
- Format: ADME
pIC50: −log10 of the molar value.
RESULT TYPE: pIC50

In [3]: df
Out[3]:
                              line_notation  result_type  measured_result
0    CCCCCCC[C@H](O)CC(=O)CCc1ccc(O)c(OC)c1        pIC50             5.17
1  CCCCCCCCC[C@H](O)CC(=O)CCc1ccc(O)c(OC)c1        pIC50             4.79
2      CCCCC[C@H](O)CC(=O)CCc1ccc(O)c(OC)c1        pIC50             4.92
